# target_under_test: Kappa-type opioid receptor (Cavia porcellus, UniProt P41144)
# Sequence (P41144 whole entry): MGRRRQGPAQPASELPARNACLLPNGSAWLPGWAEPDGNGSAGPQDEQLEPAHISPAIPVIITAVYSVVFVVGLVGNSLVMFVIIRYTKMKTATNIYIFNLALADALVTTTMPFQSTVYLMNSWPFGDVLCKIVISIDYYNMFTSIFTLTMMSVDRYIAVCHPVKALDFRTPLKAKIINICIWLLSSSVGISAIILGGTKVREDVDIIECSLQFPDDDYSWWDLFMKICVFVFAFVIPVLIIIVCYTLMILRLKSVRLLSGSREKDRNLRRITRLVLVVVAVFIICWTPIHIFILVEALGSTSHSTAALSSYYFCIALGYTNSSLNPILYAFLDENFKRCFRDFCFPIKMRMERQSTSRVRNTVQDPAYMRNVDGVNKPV
# experimental_protocol: Displacement of [3H]U-69593 from kappa opoid receptor in Dunkin-Hartley guinea pig brain after 1 hr by liquid scintillation spectrometry
metric_name: Ki

## Task Consider the molecule CC[C@@H]1CN2CCc3c([nH]c4cccc(OC)c34)[C@@H]2C[C@@H]1/C(=C\OC)C(=O)OC and give its recorded Ki.
## Result > 1000 nM

---

# experimental_protocol: Displacement of [3H]DPDPE from delta opoid receptor in Dunkin-Hartley guinea pig brain after 2 hrs by liquid scintillation spectrometry
# Set-up: species or system Cavia porcellus
Parameter: Ki. Scope: all listed entries.
Number only, in nM; omit the unit.

>  <given_smiles>
CC[C@@H]1CN2CC[C@@]3(O)C(=Nc4cccc(OC)c43)[C@@H]2C[C@@H]1/C(=C\OC)C(=O)OC

>  <Ki / nM>
155

$$$$

## Task Write down Ki measured for item CC[C@@H]1CN2CCc3c([nH]c4cccc(OC)c34)[C@@H]2C[C@@H]1/C(=C\OC)C(=O)OC
## Result 60

---

# Ki measurements, system: Mu-type opioid receptor (Homo sapiens, UniProt P35372)
# Sequence (P35372 whole entry): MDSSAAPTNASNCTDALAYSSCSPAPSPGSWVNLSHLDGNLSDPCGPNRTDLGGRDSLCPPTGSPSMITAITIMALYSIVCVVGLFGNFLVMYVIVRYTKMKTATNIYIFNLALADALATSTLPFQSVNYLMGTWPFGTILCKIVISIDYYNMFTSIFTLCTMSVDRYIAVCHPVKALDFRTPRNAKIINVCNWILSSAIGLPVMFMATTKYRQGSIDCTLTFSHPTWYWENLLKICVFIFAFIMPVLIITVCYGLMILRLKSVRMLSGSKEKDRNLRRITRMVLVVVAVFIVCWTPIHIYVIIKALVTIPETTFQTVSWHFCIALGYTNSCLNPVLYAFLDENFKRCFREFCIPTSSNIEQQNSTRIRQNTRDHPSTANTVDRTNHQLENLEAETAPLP
Write the value in nM as a bare number.

>  <given_smiles>
CC[C@@H]1CN2CC[C@]3(Nc4cccc(OC)c4C3=O)[C@@H]2C[C@@H]1/C(=C\OC)C(=O)OC

>  <metric_name>
Ki

>  <reported_value>
0.01

$$$$

## Task Enter recorded Ki with Mu-type opioid receptor (Homo sapiens, UniProt P35372) for CC[C@@H]1CN2CC[C@@]34OCCO[C@@]3(Nc3ccc(F)c(OC)c34)[C@@H]2C[C@@H]1/C(=C\OC)C(=O)OC here.
## Result 7

---

# target_under_test: Mu-type opioid receptor (Cavia porcellus)
# Sequence (P97266 whole entry): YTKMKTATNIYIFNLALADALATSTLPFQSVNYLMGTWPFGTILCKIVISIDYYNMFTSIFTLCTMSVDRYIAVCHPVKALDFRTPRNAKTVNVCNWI
# experimental_protocol: Displacement of [3H]DAMGO from guinea pig brain mu opoid receptor after 3 hrs by liquid scintillation counting analysis
metric_name: pKi
// returns pKi (minus log10 of molar concentration), number only

## Task Let me know recorded pKi for CC[C@@H]1CN2CC[C@@]3(O)C(=Nc4cccc(OC)c43)[C@@H]2C[C@@H]1/C(=C\OC)C(=O)OC , thanks.
## Result 8.01

---

# experimental_protocol: Displacement of [3H]DPDPE from guinea pig brain delta opoid receptor after 4 hrs by liquid scintillation counting analysis
# Set-up: species or system Cavia porcellus
metric_name: Ki (nM)
Note: unit nM is implicit; provide only the numeric part.

## Task Return the recorded Ki value; entry: CC[C@@H]1CN2CC[C@@]3(O)C(=Nc4cccc(OC)c43)[C@@H]2C[C@@H]1/C(=C\OC)C(=O)OC
## Result 145
